Cited source: the supplement of paper PMC10307832

# System: BEN
# assay-notes: relative viability (nuclei count vs DMSO), 5 days (fraction); higher = more cells survive
# test-conditions: first compound 0.006325 µM
measurement-name: relative viability
Numbers only.

Use these answered entries as a reference point.
compound	target-or-test-system	measurement-name	numeric-result
CC(=O)O[C@@]12CO[C@@H]1C[C@H](O)[C@@]1(C)C(=O)[C@H](O)C3=C(C)[C@@H](OC(=O)[C@H](O)[C@@H](NC(=O)OC(C)(C)C)c4ccccc4)C[C@@](O)([C@@H](OC(=O)c4ccccc4)[C@H]21)C3(C)C [Docetaxel] + Nc1ncn([C@H]2C[C@H](O)[C@@H](CO)O2)c(=O)n1 [Decitabine] (partner 2 µM)	BEN	relative viability	0.417
CC(=O)O[C@@]12CO[C@@H]1C[C@H](O)[C@@]1(C)C(=O)[C@H](O)C3=C(C)[C@@H](OC(=O)[C@H](O)[C@@H](NC(=O)OC(C)(C)C)c4ccccc4)C[C@@](O)([C@@H](OC(=O)c4ccccc4)[C@H]21)C3(C)C [Docetaxel] + CCNC(=O)c1noc(-c2cc(C(C)C)c(O)cc2O)c1-c1ccc(CN2CCOCC2)cc1 [Luminespib] (partner 0.01 µM)	BEN	relative viability	0.172
CC(=O)O[C@@]12CO[C@@H]1C[C@H](O)[C@@]1(C)C(=O)[C@H](O)C3=C(C)[C@@H](OC(=O)[C@H](O)[C@@H](NC(=O)OC(C)(C)C)c4ccccc4)C[C@@](O)([C@@H](OC(=O)c4ccccc4)[C@H]21)C3(C)C [Docetaxel] + COc1cc2c(Oc3ccc(NC(=O)C4(C(=O)Nc5ccc(F)cc5)CC4)cc3F)ccnc2cc1OCCCN1CCOCC1 [Foretinib] (partner 0.25 µM)	BEN	relative viability	0.285

Turning now to a further compound:
Asked: Look up relative viability for this compound: CC(=O)O[C@@]12CO[C@@H]1C[C@H](O)[C@@]1(C)C(=O)[C@H](O)C3=C(C)[C@@H](OC(=O)[C@H](O)[C@@H](NC(=O)OC(C)(C)C)c4ccccc4)C[C@@](O)([C@@H](OC(=O)c4ccccc4)[C@H]21)C3(C)C [Docetaxel] + CS(=O)(=O)N1CCN(Cc2cc3nc(-c4cccc5[nH]ncc45)nc(N4CCOCC4)c3s2)CC1 [Pictilisib] (partner 1 µM)
Given back: 0.23

###

# Tested on: NCI-H441
# assay-notes: relative viability (nuclei count vs DMSO), 5 days (fraction); higher = more cells survive
# test-conditions: first compound 0.5 µM
measurement-name: relative viability
Numbers only.

Use the examples below as a reference point.
molecule	relative viability
COc1cc2nccc(Oc3ccc(NC(=O)Nc4cc(C)on4)c(Cl)c3)c2cc1OC [Tivozanib] + CS(=O)(=O)N1CCN(Cc2cc3nc(-c4cccc5[nH]ncc45)nc(N4CCOCC4)c3s2)CC1 [Pictilisib] (partner 1 µM)	0.31
Nc1ccn([C@@H]2O[C@H](CO)[C@@H](O)[C@@H]2O)c(=O)n1 [Cytarabine] + Cc1nc(Nc2ncc(C(=O)Nc3c(C)cccc3Cl)s2)cc(N2CCN(CCO)CC2)n1 [Dasatinib] (partner 0.075 µM)	0.293
COc1cc2nccc(Oc3ccc(NC(=O)Nc4cc(C)on4)c(Cl)c3)c2cc1OC [Tivozanib] + CC1(C)CCC(c2ccc(Cl)cc2)=C(CN2CCN(c3ccc(C(=O)NS(=O)(=O)c4ccc(N[C@H](CCN5CCOCC5)CSc5ccccc5)c(S(=O)(=O)C(F)(F)F)c4)cc3)CC2)C1 [Navitoclax] (partner 0.5 µM)	0.545
Nc1ccn([C@@H]2O[C@H](CO)[C@@H](O)[C@@H]2O)c(=O)n1 [Cytarabine] + CC(=O)c1c(C)c2cnc(Nc3ccc(N4CCNCC4)cn3)nc2n(C2CCCC2)c1=O [Palbociclib] (partner 0.5 µM)	0.17
COc1cc2nccc(Oc3ccc(NC(=O)Nc4cc(C)on4)c(Cl)c3)c2cc1OC [Tivozanib] + N=C(N)NC(=N)NCCc1ccccc1 [Phenformin] (partner 250 µM)	0.735

Next molecule, relative viability to be filled in.
Asked: Quick one: relative viability of Nc1ccn([C@@H]2O[C@H](CO)[C@@H](O)[C@@H]2O)c(=O)n1 [Cytarabine] + O=C(c1cc(Cc2n[nH]c(=O)c3ccccc23)ccc1F)N1CCN(C(=O)C2CC2)CC1 [Olaparib] (partner 8 µM) ?
Given back: 0.175
